- subject of test: Tyrosine-protein kinase Lck (Homo sapiens)
- Sequence (P06239 whole entry): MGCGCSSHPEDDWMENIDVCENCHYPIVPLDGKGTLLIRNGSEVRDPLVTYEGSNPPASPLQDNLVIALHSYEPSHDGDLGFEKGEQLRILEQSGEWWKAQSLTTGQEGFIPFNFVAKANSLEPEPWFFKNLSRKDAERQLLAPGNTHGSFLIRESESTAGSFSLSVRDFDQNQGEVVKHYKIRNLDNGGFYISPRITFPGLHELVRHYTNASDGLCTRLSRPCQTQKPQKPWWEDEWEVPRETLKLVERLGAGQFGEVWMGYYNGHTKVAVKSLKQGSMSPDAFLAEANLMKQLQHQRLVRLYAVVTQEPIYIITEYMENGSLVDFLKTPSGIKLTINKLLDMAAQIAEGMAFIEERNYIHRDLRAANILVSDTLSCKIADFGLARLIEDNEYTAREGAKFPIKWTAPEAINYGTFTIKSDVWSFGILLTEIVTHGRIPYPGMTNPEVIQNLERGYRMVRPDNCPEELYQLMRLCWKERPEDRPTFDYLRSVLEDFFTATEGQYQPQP
- protocol: Inhibition of full-length recombinant human His-tagged LCK expressed in baculovirus expression system by Z'-LYTE assay
Reported values of IC50 for individual entries
measurement name: IC50 (nM)

• Cc1sc(C(=O)N[C@@H]2[C@H](N)CCCC2(F)F)cc1-c1cnn2cc(Cl)cnc12 = 5000
• Cn1cc(-c2cnc3c(-c4csc(C(=O)NCC(F)(F)F)c4)cnn3c2)cn1 = 37
• Cn1cc(-c2cnc3c(-c4csc(C(=O)N[C@@H]5CCCC[C@@H]5N)c4)cnn3c2)cn1 (racemic) = 3.9
• O=C(NCC(F)(F)F)c1cc(-c2cnn3cc(-c4ccc(OCCN5CCCCC5)cc4)cnc23)cs1 = 19

###

- subject of test: Inhibitor of nuclear factor kappa-B kinase subunit epsilon (Homo sapiens, UniProt Q14164)
- Sequence (Q14164 whole entry): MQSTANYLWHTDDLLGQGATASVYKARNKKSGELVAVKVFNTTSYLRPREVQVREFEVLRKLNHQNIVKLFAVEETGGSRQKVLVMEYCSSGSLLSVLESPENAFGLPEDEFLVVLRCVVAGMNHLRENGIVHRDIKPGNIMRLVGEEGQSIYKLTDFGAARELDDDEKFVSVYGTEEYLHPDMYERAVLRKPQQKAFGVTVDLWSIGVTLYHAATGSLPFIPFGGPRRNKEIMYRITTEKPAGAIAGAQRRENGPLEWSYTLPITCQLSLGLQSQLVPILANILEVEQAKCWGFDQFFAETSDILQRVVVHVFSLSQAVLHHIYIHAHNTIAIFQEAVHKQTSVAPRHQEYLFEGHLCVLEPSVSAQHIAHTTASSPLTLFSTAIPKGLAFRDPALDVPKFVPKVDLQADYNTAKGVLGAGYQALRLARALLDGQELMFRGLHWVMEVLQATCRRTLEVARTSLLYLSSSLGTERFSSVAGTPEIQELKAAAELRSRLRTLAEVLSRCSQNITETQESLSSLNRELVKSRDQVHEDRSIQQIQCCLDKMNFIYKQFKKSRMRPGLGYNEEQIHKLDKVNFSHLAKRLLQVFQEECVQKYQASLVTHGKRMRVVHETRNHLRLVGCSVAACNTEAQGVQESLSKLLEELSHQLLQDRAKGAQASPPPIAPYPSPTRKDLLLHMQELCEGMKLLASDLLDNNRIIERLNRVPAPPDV
- protocol: Inhibition of full-length recombinant human GST-tagged IKK-epsilon expressed in baculovirus expression system by Z'-LYTE assay
measurement name: IC50

- Cn1cc(-c2cnc3c(-c4csc(C(=O)N[C@@H]5CCCC[C@@H]5N)c4)cnn3c2)cn1 (racemic): 7.1 nM
- Cc1sc(C(=O)N[C@@H]2[C@H](N)CCCC2(F)F)cc1-c1cnn2cc(Cl)cnc12: 48 nM
- Cn1cc(-c2cnc3c(-c4csc(C(=O)NCC(F)(F)F)c4)cnn3c2)cn1: < 10 nM
- O=C(NCC(F)(F)F)c1cc(-c2cnn3cc(-c4ccc(OCCN5CCCCC5)cc4)cnc23)cs1: < 10 nM

###

Reported values of pIC50 for individual entries
- subject of test: Serine/threonine-protein kinase Chk1 (Homo sapiens, UniProt O14757)
- Sequence (O14757 whole entry): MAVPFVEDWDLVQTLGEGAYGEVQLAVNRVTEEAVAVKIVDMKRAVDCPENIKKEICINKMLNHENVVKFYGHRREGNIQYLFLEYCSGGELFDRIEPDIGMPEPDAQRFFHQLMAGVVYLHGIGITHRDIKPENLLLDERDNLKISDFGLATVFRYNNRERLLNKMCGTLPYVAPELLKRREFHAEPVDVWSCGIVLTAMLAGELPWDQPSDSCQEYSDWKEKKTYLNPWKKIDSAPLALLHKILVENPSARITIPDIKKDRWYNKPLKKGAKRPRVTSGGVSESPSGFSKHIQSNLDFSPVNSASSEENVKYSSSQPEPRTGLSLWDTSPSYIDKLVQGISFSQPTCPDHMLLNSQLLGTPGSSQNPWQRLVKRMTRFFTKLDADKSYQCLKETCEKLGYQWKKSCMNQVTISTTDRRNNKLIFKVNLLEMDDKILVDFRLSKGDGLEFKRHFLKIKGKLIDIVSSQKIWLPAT
- protocol: Inhibition of full-length recombinant human His-tagged CHEK1 expressed in baculovirus expression system by Z'-LYTE assay
pIC50: −log10 of the molar value.
measurement name: pIC50

- O=C(NCC(F)(F)F)c1cc(-c2cnn3cc(-c4ccc(OCCN5CCCCC5)cc4)cnc23)cs1: 7.24
- Cn1cc(-c2cnc3c(-c4csc(C(=O)NCC(F)(F)F)c4)cnn3c2)cn1: 6.72
- Cn1cc(-c2cnc3c(-c4csc(C(=O)N[C@@H]5CCCC[C@@H]5N)c4)cnn3c2)cn1 (racemic): 8.66
- Cc1sc(C(=O)N[C@@H]2[C@H](N)CCCC2(F)F)cc1-c1cnn2cc(Cl)cnc12: 6.70

###

- subject of test: G protein-coupled receptor kinase 6 (Homo sapiens)
- Sequence (P43250 whole entry): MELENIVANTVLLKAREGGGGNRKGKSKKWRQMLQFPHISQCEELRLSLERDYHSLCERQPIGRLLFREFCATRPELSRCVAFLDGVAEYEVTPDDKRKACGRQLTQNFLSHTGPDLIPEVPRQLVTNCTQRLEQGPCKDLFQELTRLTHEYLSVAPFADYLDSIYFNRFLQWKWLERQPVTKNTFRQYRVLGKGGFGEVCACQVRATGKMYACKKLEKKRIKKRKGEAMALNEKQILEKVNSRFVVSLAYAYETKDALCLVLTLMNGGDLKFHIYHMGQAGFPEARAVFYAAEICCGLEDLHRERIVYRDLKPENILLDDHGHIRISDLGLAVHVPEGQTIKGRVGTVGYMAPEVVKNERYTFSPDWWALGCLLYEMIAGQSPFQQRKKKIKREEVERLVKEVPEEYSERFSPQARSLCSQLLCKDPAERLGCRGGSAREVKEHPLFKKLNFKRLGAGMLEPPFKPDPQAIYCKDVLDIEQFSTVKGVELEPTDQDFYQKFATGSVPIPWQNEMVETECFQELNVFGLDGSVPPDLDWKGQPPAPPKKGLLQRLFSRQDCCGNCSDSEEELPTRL
- protocol: Inhibition of full-length recombinant human GST-tagged GRK6 expressed in baculovirus expression system by Z'-LYTE assay
pIC50: −log10 of the molar value.
measurement name: pIC50

• Cn1cc(-c2cnc3c(-c4csc(C(=O)N[C@@H]5CCCC[C@@H]5N)c4)cnn3c2)cn1 (racemic) = 6.30
• O=C(NCC(F)(F)F)c1cc(-c2cnn3cc(-c4ccc(OCCN5CCCCC5)cc4)cnc23)cs1 = 4.77
• Cc1sc(C(=O)N[C@@H]2[C@H](N)CCCC2(F)F)cc1-c1cnn2cc(Cl)cnc12 = 5.77

###

- subject of test: Sphingosine kinase 1 (Homo sapiens, UniProt Q9NYA1)
- Sequence (Q9NYA1 whole entry): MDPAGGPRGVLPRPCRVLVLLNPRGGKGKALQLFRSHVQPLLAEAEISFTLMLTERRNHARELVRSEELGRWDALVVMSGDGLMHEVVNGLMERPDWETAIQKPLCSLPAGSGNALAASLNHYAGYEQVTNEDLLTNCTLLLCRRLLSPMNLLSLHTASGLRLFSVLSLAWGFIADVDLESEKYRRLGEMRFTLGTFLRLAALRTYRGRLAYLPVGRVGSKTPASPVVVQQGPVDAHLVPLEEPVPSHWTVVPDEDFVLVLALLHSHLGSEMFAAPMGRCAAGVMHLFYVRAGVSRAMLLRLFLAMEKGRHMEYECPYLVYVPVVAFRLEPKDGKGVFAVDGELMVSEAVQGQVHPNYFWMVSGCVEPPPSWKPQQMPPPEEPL
- protocol: Inhibition of full-length recombinant human GST-tagged SPHK1 by Z'-LYTE assay
measurement name: IC50

* O=C(NCC(F)(F)F)c1cc(-c2cnn3cc(-c4ccc(OCCN5CCCCC5)cc4)cnc23)cs1 | 32 µM
* Cc1sc(C(=O)N[C@@H]2[C@H](N)CCCC2(F)F)cc1-c1cnn2cc(Cl)cnc12 | > 100 µM
* Cn1cc(-c2cnc3c(-c4csc(C(=O)N[C@@H]5CCCC[C@@H]5N)c4)cnn3c2)cn1 (racemic) | > 10 µM
* Cn1cc(-c2cnc3c(-c4csc(C(=O)NCC(F)(F)F)c4)cnn3c2)cn1 | > 100 µM
